assay-target: Carbonic anhydrase 2 (Homo sapiens)
pKi: −log10 of the molar value.
T means recorded pKi is 8 or above; F means it is below 8.

API: above_or_equal(metric=pKi, cutoff=8) for item NS(=O)(=O)c1ccc(NNSC(=S)N2CCOCC2)cc1
F

API: above_or_equal(metric=pKi, cutoff=8) for item NS(=O)(=O)c1nnc(NS(=O)(=O)c2ccc(NSC(=S)N3CCOCC3)cc2)s1
T

API: above_or_equal(metric=pKi, cutoff=8) for item NS(=O)(=O)c1cc(S(N)(=O)=O)c(NSC(=S)N2CCOCC2)c(Cl)c1Cl
F

API: above_or_equal(metric=pKi, cutoff=8) for item CCN(C)C(=S)SNc1ccc(S(N)(=O)=O)cc1
F
